Values from patent US8552024B2

Target under test: human HSL (Homo sapiens, UniProt Q05469)
Construct: overlapping PCR to generate a full length human HSL ORF with a 3′-His6 tag
Sequence (Q05469 1-1076): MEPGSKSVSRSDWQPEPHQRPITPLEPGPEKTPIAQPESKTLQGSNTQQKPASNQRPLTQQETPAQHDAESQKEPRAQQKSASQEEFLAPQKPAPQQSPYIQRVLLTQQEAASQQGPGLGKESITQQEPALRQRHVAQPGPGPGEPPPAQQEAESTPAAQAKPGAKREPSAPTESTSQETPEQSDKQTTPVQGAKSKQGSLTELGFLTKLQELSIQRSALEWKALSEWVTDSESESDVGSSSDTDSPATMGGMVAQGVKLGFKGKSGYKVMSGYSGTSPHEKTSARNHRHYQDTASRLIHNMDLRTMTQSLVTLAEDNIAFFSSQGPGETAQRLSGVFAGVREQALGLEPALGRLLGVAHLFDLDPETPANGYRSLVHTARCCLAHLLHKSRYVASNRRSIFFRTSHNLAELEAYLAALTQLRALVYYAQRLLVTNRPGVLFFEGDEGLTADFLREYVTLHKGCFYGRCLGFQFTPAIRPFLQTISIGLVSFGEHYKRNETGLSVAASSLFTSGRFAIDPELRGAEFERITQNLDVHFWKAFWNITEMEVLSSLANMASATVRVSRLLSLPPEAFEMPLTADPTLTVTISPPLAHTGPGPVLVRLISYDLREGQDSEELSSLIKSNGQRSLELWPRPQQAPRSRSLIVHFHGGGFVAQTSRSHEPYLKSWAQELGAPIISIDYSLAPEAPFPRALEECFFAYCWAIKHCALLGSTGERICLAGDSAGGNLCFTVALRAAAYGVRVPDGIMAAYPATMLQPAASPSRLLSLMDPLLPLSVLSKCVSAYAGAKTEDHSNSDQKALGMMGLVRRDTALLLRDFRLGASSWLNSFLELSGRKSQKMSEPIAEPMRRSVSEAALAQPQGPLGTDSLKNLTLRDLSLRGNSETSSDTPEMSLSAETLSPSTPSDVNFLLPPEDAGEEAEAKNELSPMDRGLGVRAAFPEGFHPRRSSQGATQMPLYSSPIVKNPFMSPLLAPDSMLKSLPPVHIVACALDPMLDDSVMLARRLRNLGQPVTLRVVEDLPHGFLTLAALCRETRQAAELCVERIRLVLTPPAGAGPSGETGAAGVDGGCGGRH
Assay text: Human Hormone-Sensitive Lipase (HSL) enzyme inhibition assay (colorimetric, DMPT substrate)
Condition context: human full length HSL-His6; substrate 2,3-dimercapto-1-propanol tributyrate; 37° C., 20 minutes; absorbance at 405 nm; read-out: HSL hum IC50
pIC50: −log10 of the molar value.
Outcome measure: pIC50

Worked cases, answers included:
{"columns": ["Compound", "Value reported"],
 "data": [
  ["O=C1N(c2ccc(OC(F)(F)F)cc2)CCC12CCN(c1c(F)cccc1F)CC2 [Example 6]", 6.02],
  ["Cc1cnc(F)c(N2CCC3(CC2)CCN(c2ccc(OC(F)(F)F)cc2)C3=O)c1 [Example 10]", 6.62],
  ["O=C1N(c2ccc(OC(F)(F)F)cc2)CCC12CCN(c1cccnc1O)CC2 [Example 15]", 7.40],
  ["O=C1N(c2ccc(OC(F)(F)F)cc2)CCC12CCN(c1ccccc1O)CC2 [Example 13]", 7.30]
]}

P: Cc1ccc(O)c(N2CCC3(CC2)CCN(c2ccc(OC(F)(F)F)cc2)C3=O)c1 [Example 14]
Q: O=C1N(c2ccc(OC(F)(F)F)cc2)CCC12CCN(c1cc(C(F)(F)F)ccc1F)CC2 [Example 2]
Name the one with the greater pIC50 value, either P or Q as given. Please respond with the label that marks your chosen entry.
P
(P: 7.22, Q: 6.26)
